Test system: SNB-75
Assay: NCI tumour cell line growth inhibition, 48 h
Calls of active or inactive are those of the source. Rule as the data show it: active = GI50 up to about 1.1 µM and inactive = higher.
Form entry, call: pick from active, inactive

Observe how each entry below is paired with its result.
CC(NC1=CC(=O)c2cccnc2C1=O)C(O)c1ccccc1 (centres undefined) = inactive
COc1ccc(OC)c(C2CCCc3c2cnc2nc(N)nc(N)c32)c1 (centres undefined) = active

Query: For this molecule, state the assay outcome: COc1ccc2nc(/C(N)=C\C#N)ccc2c1
Result: inactive

Query: For this molecule, state the assay outcome: CC[C@@]1(O)C(=O)OCc2c1cc1n(c2=O)Cc2c-1nc1ccccc1c2Cl
Result: active

Query: For this molecule, state the assay outcome: CC1(C)OC(=O)C(c2ccsc2)C(=O)O1
Result: inactive

Query: For this molecule, state the assay outcome: COc1cc2c(cc1NC(=O)c1ccccc1)c1c(n2S(=O)(=O)c2ccccc2)CCN(S(=O)(=O)c2ccccc2)C1
Result: inactive

Query: For this molecule, state the assay outcome: Cc1noc(/N=C2\C=C(O)C(=O)c3ccccc32)c1C
Result: inactive

Query: For this molecule, state the assay outcome: COC(=O)CCCC(=O)/C(=N\Nc1ccc(Cl)cc1)Nc1c(Cl)cccc1Cl
Result: inactive

Query: For this molecule, state the assay outcome: COc1cc(C2c3cc4c(cc3OC(NCc3ccccc3)C2C)OCO4)cc(OC)c1OC (centres undefined)
Result: active

----------
Tested on: SK-MEL-2
Experiment: NCI tumour cell line growth inhibition, 48 h
Calls of active or inactive are those of the source. Rule as the data show it: active = GI50 up to about 1.1 µM and inactive = higher.
Form entry, call: pick from y (active), n (inactive)

Observe how each entry below is paired with its result.
CC[C@@]1(O)C[C@H](OC2CC(N(C)C)C(O)C(C)O2)c2c(O)c3c(c(O)c2[C@H]1OC1CC(N(C)C)C(O)C(C)O1)C(=O)c1cccc(O)c1C3=O (some centres undefined) = y
COc1ccc(/C=C/C(=O)N[C@@H]2C(=O)N3[C@@H]2SC(C)(C)[C@@H]3C(=O)O)cc1 = n
CN(C)CCCc1cccnc1 = n

Query: For this compound, state the assay outcome: COC(=O)CCCC(=O)/C(=N\Nc1ccc(Cl)cc1)Nc1c(Cl)cccc1Cl
Result: n

----------
System: SK-MEL-5
Experiment: NCI tumour cell line growth inhibition, 48 h
Active and inactive are the calls of the source. Cut-off read from the data, not from the text of the source: active = GI50 up to about 1.1 µM and inactive = higher.
Form entry, call: pick from active, inactive

Query: For this compound, state the assay outcome: c1ccc(C/C(=N\Nc2nc3ccccc3o2)c2ccccn2)cc1
Result: active

Query: For this compound, state the assay outcome: Cc1ccc(/N=N/c2c(C)nn(C(=O)CC(=O)Nc3ccccc3)c2C)cc1C
Result: inactive

Query: For this compound, state the assay outcome: COc1ccc(CCCNC(=O)Cc2ccccc2CO)cc1OC
Result: inactive

Query: For this compound, state the assay outcome: Nc1ccc(S(=O)(=O)c2ccc(NC(=O)c3cccnc3)cc2)cc1
Result: inactive

Query: For this compound, state the assay outcome: CC(NC(=O)c1ccc(NP(=O)(OCc2ccc([N+](=O)[O-])o2)N(C)CCCCCl)cc1)c1ccc(OCC2CCCCC2)c(C(N)=O)c1 (configuration not stated)
Result: inactive

Query: For this compound, state the assay outcome: COc1c(Cl)nc2ccccc2c1N=[N+]=[N-]
Result: inactive

Query: For this compound, state the assay outcome: CC1=NOC2(C1)/C(=N/O)CCC/C2=N\O (configuration not stated)
Result: inactive
